# System name: ATR (Homo sapiens)
# Construct: endogenous in cells
# Sequence (Q13535 whole entry): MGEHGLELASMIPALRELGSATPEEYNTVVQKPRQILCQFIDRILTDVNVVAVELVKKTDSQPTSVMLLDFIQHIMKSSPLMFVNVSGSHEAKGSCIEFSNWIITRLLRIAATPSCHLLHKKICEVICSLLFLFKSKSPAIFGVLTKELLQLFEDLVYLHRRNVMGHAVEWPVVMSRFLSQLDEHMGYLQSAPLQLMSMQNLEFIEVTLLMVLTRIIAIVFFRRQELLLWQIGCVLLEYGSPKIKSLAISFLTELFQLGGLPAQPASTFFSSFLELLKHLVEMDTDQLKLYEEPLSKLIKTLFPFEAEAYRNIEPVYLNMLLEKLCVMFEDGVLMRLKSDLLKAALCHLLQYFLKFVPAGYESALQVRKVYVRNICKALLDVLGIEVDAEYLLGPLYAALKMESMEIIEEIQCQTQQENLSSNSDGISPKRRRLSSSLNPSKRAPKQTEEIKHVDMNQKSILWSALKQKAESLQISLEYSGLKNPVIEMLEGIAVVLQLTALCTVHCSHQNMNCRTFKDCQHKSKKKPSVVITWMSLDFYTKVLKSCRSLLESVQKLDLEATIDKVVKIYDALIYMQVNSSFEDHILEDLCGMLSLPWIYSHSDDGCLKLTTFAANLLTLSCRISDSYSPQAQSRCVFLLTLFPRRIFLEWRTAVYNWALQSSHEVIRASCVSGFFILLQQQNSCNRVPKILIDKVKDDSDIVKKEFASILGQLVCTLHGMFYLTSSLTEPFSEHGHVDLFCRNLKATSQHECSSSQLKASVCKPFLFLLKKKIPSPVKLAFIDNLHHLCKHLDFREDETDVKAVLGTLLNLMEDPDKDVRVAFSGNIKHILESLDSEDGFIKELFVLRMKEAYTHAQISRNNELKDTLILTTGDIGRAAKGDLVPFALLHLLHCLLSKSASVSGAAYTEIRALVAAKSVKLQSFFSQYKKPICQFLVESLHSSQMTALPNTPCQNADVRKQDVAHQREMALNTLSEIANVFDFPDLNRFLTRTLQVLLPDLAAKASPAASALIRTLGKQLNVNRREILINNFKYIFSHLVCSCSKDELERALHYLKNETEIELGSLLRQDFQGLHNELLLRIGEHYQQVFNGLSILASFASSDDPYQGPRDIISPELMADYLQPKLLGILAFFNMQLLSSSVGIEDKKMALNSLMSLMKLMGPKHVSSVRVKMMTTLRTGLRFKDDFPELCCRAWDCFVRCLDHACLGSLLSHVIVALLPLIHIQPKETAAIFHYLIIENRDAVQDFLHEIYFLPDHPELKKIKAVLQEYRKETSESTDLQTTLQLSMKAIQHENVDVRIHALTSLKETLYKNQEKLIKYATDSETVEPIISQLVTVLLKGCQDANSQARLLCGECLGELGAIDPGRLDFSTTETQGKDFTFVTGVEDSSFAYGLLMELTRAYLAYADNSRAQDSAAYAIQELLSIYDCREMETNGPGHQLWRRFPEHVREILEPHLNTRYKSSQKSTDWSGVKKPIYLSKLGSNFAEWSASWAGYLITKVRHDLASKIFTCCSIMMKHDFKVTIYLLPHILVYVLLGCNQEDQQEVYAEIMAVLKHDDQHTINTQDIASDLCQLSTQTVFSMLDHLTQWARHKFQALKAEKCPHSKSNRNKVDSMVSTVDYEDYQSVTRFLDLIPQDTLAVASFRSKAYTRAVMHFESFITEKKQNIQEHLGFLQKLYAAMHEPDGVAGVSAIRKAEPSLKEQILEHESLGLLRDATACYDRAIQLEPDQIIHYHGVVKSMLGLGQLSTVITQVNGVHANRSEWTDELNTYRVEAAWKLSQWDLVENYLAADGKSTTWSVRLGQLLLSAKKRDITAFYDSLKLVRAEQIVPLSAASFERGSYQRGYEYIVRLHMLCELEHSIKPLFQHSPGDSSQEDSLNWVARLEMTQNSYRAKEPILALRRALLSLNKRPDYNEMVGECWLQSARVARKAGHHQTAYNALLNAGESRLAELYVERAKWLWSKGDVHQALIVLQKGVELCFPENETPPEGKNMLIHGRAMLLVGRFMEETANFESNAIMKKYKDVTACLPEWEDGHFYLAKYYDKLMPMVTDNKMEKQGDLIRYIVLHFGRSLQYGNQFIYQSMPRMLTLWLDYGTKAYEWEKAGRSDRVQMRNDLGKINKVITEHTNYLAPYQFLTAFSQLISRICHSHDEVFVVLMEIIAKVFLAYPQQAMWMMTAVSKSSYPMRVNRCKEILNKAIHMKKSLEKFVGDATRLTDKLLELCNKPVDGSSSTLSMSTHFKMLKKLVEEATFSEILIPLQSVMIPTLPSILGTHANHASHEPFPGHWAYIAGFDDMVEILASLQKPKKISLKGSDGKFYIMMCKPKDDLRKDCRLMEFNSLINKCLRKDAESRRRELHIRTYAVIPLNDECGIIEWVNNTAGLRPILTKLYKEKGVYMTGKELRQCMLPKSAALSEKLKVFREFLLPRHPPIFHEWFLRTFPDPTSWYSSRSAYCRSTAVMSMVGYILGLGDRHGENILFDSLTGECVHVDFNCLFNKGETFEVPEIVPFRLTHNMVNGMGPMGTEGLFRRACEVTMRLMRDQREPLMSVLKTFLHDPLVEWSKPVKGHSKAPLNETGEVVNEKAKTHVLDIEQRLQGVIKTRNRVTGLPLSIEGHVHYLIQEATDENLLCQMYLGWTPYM
# Sequence (Q8WXE1 whole entry partner): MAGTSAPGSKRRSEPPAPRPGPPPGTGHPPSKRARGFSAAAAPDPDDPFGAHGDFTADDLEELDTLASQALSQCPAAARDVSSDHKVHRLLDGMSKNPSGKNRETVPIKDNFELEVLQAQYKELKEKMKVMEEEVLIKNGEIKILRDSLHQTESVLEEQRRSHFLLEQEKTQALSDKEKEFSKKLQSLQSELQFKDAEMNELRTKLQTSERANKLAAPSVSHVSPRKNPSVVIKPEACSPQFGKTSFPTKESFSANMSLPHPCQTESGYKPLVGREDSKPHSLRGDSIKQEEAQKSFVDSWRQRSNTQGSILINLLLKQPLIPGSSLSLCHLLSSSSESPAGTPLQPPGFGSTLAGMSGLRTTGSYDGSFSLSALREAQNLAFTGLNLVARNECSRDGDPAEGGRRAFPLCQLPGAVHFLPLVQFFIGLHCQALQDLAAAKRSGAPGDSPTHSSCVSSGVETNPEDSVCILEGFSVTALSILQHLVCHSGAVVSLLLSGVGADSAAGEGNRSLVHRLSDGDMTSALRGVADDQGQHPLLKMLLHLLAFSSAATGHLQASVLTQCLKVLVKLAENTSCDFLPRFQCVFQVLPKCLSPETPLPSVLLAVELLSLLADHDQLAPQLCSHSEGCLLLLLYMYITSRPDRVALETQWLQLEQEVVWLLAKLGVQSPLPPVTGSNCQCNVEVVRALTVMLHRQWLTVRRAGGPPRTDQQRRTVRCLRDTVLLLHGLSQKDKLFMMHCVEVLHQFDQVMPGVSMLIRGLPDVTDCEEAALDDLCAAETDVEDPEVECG
# Assay text: ATR cellular potency assay (pChk1 Ser345 in HT29 cells after 4NQO)
# Cond: pChk1 (Ser 345); Table 2; read-out: Assay b) ATR Cell IC50
Cut-off 2 µM on IC50: below means 1, at or above means -1.

These recorded examples may help you get a feel for the data.
Molecule: CN(C)[C@@H]1CCN(c2ccc(-c3cc4c(cc3F)ncc3c4n([C@H]4CCCOC4)c(=O)n3C)cn2)C1
Label class: -1

Molecule: CO[C@@H]1CCC[C@H](n2c(=O)n(C)c3cnc4ccc(-c5ccc(N6CCC(N(C)C)CC6)nc5)cc4c32)C1 (single isomer, unassigned) [Example 45]
Label class: -1

Molecule: CO[C@@H]1CCC[C@H](n2c(=O)n(C)c3cnc4ccc(-c5ccc(N6CCC(N(C)C)CC6)nc5)cc4c32)C1 (single isomer, unassigned) [Example 46]
Label class: -1

Molecule: CN(C)C1CN(c2ccc(-c3ccc4ncc5c(c4c3)n([C@@H]3CCCOC3)c(=O)n5C)cn2)C1
Label class: -1

Molecule: CO[C@H]1CC[C@@H](n2c(=O)n(C)c3cnc4ccc(-c5ccc(N6CC[C@@H](N(C)C)C6)nc5)cc4c32)CC1 (single isomer, unassigned)
Label class: 1

Molecule: CN(C)C1CCN(c2ccc(-c3ccc4ncc5c(c4c3)n([C@H]3CCCOC3)c(=O)n5C)cn2)CC1
Label class: -1

Molecule: CC(C)n1c(=O)n(C)c2cnc3cc(F)c(-c4ccc(N5CCC(N(C)C)CC5)nc4)cc3c21
Label class: -1

Molecule: CO[C@H]1CC[C@H](n2c(=O)n(C)c3cnc4cc(F)c(-c5ccc(N6CC(N(C)C)C6)nc5)cc4c32)C1 (single isomer, unassigned) [Example 29]
Label class: -1

Molecule: CO[C@@H]1CCC[C@H](n2c(=O)n(C)c3cnc4ccc(-c5ccc(N6CC[C@@H](N(C)C)C6)nc5)cc4c32)C1 (single isomer, unassigned) [Example 47]
Label class: 1

Molecule: CO[C@H]1C[C@@H](n2c(=O)n(C)c3cnc4cc(F)c(-c5ccc(N6CCC(N(C)C)CC6)nc5)cc4c32)C1
Label class: -1

hey, is IC50 for CO[C@H]1CCC[C@H](n2c(=O)n(C)c3cnc4ccc(-c5ccc(N6CC(N(C)C)C6)nc5)cc4c32)C1 (single isomer, unassigned) [Example 56] lower than 2 µM or not?
1

Just wondering, is IC50 of CO[C@H]1C[C@H](n2c(=O)n(C)c3cnc4ccc(-c5ccc(N6CC[C@@H](N(C)C)C6)nc5)cc4c32)C1 below 2 µM?
1

Please state whether IC50 is below 2 µM for CO[C@H]1CCC[C@H](n2c(=O)n(C)c3cnc4ccc(-c5ccc(N6CCC(N(C)C)CC6)nc5)cc4c32)C1 (single isomer, unassigned) [Example 53]
-1

I wonder whether CO[C@H]1CCC[C@H](n2c(=O)n(C)c3cnc4ccc(-c5ccc(N6CC[C@@H](N(C)C)C6)nc5)cc4c32)C1 (single isomer, unassigned) [Example 52] has IC50 below 2 µM. Can you tell?
1

From: patent US20180280377A1
